Test: qHTS for Inhibitors of ATXN expression: Validation (AID 588378); note: nearly all actives have a fitted effect of over 75% in size
Conditions: cell-based ATXN2 expression reporter assay, luminescence; series mostly up to 57.1 µM
Inconclusive results are not listed. Activity calls are given as the source filed them. Calls come from the whole dose curve; as a rule, active = well fitted inhibition curve with a large enough effect; inconclusive = small, poorly fitted or top-dose-only effect; inactive = no such curve, though single readings can be large or run the other way.
Result category, one only: label 1 (active), label 0 (inactive)

{"molecule": "COc1cc2ncnc(Nc3cccc(Cl)c3)c2cc1OC", "cat": "label 0"}

Input line: Could you kindly confirm the outcome this assay logged for Nc1nc(N)c2nc(CNc3ccc(C(=O)NC(CCC(=O)O)C(=O)O)cc3)cnc2n1 (stereo unspecified) ?
Output line: label 0

Input line: Could you kindly confirm the outcome this assay logged for CC1=C(C(=O)O)N2C(=O)[C@@H](NC(=O)C(N)c3ccccc3)[C@H]2SC1 (stereo partly specified) ?
Output line: label 0

Input line: Could you kindly confirm the outcome this assay logged for CC(C)NCC(O)c1ccc(NS(C)(=O)=O)cc1 (stereo unspecified) ?
Output line: label 0

Input line: Could you kindly confirm the outcome this assay logged for COc1cc2nc(N3CCCN(C)CC3)nc(NC3CCN(Cc4ccccc4)CC3)c2cc1OC ?
Output line: label 1

Input line: Could you kindly confirm the outcome this assay logged for CCCCS(=N)(=O)CCC(N)C(=O)O (stereo unspecified) ?
Output line: label 0

====

System: KB-3-1
Experiment: Cytotoxic Profiling of Annotated Libraries Using Quantitative High-Throughput Screening (AID 1296008); note: nearly all actives have a fitted effect of over 60% in size; note: potency is the fitted concentration of half-maximal effect
Settings: Five cell lines viability, CellTiter-Glo ATP luminescence, 48-72 h
Experimental: Cell-based phenotypic screening is a commonly used approach to discover biological pathways, novel drug targets, chemical probes and high-quality hit-to-lead molecules. […] A pintool (Kalypsys) was used to transfer 23 nL of compound solution to the 1536-well assay plates. […] Plates were left at room temperature for 10 min before imaging the ATP-coupled luminescence using a ViewLux microplate imager (PerkinElmer, Waltham, MA).
Inconclusive results are not listed. The source made the active and inactive calls. Calls come from the whole dose curve; as a rule, active = well fitted inhibition curve with a large enough effect; inconclusive = small, poorly fitted or top-dose-only effect; inactive = flat fitted curve, though single readings scatter.
reported property: Potency

Reference set (4 entries):
{"compound": "CC(C)OC(=O)OCOP(=O)(CO[C@H](C)Cn1cnc2c(N)ncnc21)OCOC(=O)OC(C)C", "Potency": "inactive"}
{"compound": "COC(=O)Nc1nc2ccc(C(=O)c3ccccc3)cc2[nH]1", "Potency": "0.623 µM (active)"}
{"compound": "COc1cc(NS(=O)(=O)c2ccc(N)cc2)nc(OC)n1", "Potency": "inactive"}
{"compound": "COc1c(N2CCNC(C)C2)c(F)cc2c(=O)c(C(=O)O)cn(C3CC3)c12 (stereo not given)", "Potency": "inactive"}

Continue with the next compound.
Input line: Look up Potency: O[C@@H](CNC[C@H](O)[C@H]1CCc2cc(F)ccc2O1)[C@@H]1CCc2cc(F)ccc2O1
Output line: 20.9 µM (active)

====

Test system: CP269
Experiment: qHTS profiling for inhibitors of Plasmodium falciparum proliferation (AID 504749); note: nearly all actives have a fitted effect of over 60% in size
Settings: P. falciparum in erythrocytes, SYBR Green DNA, 72 h; series mostly up to 28.7 µM
Records with an inconclusive call do not appear. Calls of active or inactive are those of the source. Calls follow the shape of the dose curve; as a rule, active = well fitted inhibition curve with a large enough effect; inconclusive = small, poorly fitted or top-dose-only effect; inactive = flat fitted curve, though single readings scatter.
Result category, one only: active, inactive

{"molecule": "CCCc1nc(C)c2c(=O)[nH]c(-c3cc(S(=O)(=O)N4CCN(CC)CC4)ccc3OCC)nn12", "system tested": "CP269", "cat": "inactive"}
{"molecule": "CN1CCCC(n2nc(Cc3ccc(Cl)cc3)c3ccccc3c2=O)CC1 (stereo not drawn)", "system tested": "CP269", "cat": "inactive"}
{"molecule": "NC(=O)N1c2ccccc2CC(=O)c2ccccc21", "system tested": "CP269", "cat": "inactive"}
{"molecule": "COc1cnc(NS(=O)(=O)c2ccc(N)cc2)nc1", "system tested": "CP269", "cat": "inactive"}

Input line: Could you kindly confirm the outcome this assay logged for CNNCc1ccc(C(=O)NC(C)C)cc1 ?
Output line: inactive

Input line: Could you kindly confirm the outcome this assay logged for N[C@@H](C(=O)N[C@@H]1C(=O)N2C(C(=O)O)=C(Cl)CS[C@H]12)c1ccccc1 ?
Output line: inactive

====

Test system: CP201
Assay: qHTS profiling for inhibitors of Plasmodium falciparum proliferation (AID 504749); note: nearly all actives have a fitted effect of over 60% in size
Settings: P. falciparum in erythrocytes, SYBR Green DNA, 72 h; series mostly up to 28.7 µM
Inconclusive results are not listed. Activity calls are given as the source filed them. Calls follow the shape of the dose curve; as a rule, active = well fitted inhibition curve with a large enough effect; inconclusive = small, poorly fitted or top-dose-only effect; inactive = flat fitted curve, though single readings scatter.
Result category, one only: 1.0 (active), 0.0 (inactive)

Consider the worked cases shown below.
{"molecule": "C[C@@H](NCCCc1cccc(C(F)(F)F)c1)c1cccc2ccccc12", "system tested": "CP201", "cat": 1.0}
{"molecule": "O=c1cc(O)c(Cl)c[nH]1", "system tested": "CP201", "cat": 0.0}
{"molecule": "CCc1c2c(nc3ccc(OC(=O)N4CCC(N5CCCCC5)CC4)cc13)-c1cc3c(c(=O)n1C2)COC(=O)[C@]3(O)CC", "system tested": "CP201", "cat": 0.0}
{"molecule": "N[C@@H](Cc1ccc(O)c(O)c1)C(=O)O", "system tested": "CP201", "cat": 0.0}

Input line: Could you kindly confirm the outcome this assay logged for COc1ccc(-c2ccc3cc(C(=O)O)ccc3c2)cc1C12CC3CC(CC(C3)C1)C2 ?
Output line: 0.0

Input line: Could you kindly confirm the outcome this assay logged for COc1nc(N)nc2c1ncn2[C@@H]1O[C@H](CO)[C@@H](O)[C@@H]1O ?
Output line: 0.0

Input line: Could you kindly confirm the outcome this assay logged for CC(C)NCC(O)c1ccc(NS(C)(=O)=O)cc1 (centres undefined) ?
Output line: 0.0

Input line: Could you kindly confirm the outcome this assay logged for CC(N)C12CC3CC(CC(C3)C1)C2 (centres undefined) ?
Output line: 0.0

Input line: Could you kindly confirm the outcome this assay logged for O=S(=O)(O)CCS ?
Output line: 0.0

Input line: Could you kindly confirm the outcome this assay logged for Nc1ccc(S(=O)(=O)Nc2ccccn2)cc1 ?
Output line: 0.0

Input line: Could you kindly confirm the outcome this assay logged for CC[C@H](C)C(=O)O[C@H]1C[C@@H](C)C=C2C=C[C@H](C)[C@H](CC[C@@H]3C[C@@H](O)CC(=O)O3)[C@H]21 ?
Output line: 0.0

Input line: Could you kindly confirm the outcome this assay logged for CCOCC(O)COc1ccc(NC(=O)CC[S+](C)C)cc1 (centres undefined) ?
Output line: 0.0

Input line: Could you kindly confirm the outcome this assay logged for NCCCC(O)(P(=O)(O)O)P(=O)(O)O ?
Output line: 0.0

Input line: Could you kindly confirm the outcome this assay logged for Cc1ncc([N+](=O)[O-])n1CCO ?
Output line: 0.0

Input line: Could you kindly confirm the outcome this assay logged for COc1cnc(NS(=O)(=O)c2ccc(N)cc2)nc1 ?
Output line: 0.0

Input line: Could you kindly confirm the outcome this assay logged for NC(N)=NC(N)=NCCc1ccccc1 ?
Output line: 0.0

====

Experiment: Counterscreen for APE1 Inhibitors: Fluorescent Dye Displacement Validation Assay (AID 1707);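 note: plate controls were ThO with dsDNA and no compound for no effect and ThO without dsDNA for full effect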
Conditions: fluorescent dye displacement from DNA; series mostly up to 57.1 µM
Records with an inconclusive call do not appear. Active and inactive are the calls of the source. Calls come from the whole dose curve; as a rule, active = well fitted inhibition curve with a large enough effect; inconclusive = small, poorly fitted or top-dose-only effect; inactive = no such curve, though single readings can be large or run the other way.
reported property: outcome

{"compound": "Nc1nc(N)c2nc(CNc3ccc(C(=O)NC(CCC(=O)O)C(=O)O)cc3)cnc2n1 (stereo not drawn)", "data value": "inactive"}
{"compound": "CC(C)NCC(O)c1ccc(NS(C)(=O)=O)cc1 (stereo not drawn)", "data value": "inactive"}
{"compound": "NC(=O)c1cccc(N)c1", "data value": "inactive"}
{"compound": "CC1=C(C(=O)O)N2C(=O)[C@@H](NC(=O)C(N)c3ccccc3)[C@H]2SC1 (stereo partly drawn)", "data value": "inactive"}
{"compound": "Cc1ccc(S(=O)(=O)N[C@@H](Cc2ccccc2)C(=O)CCl)cc1", "data value": "inactive"}
{"compound": "O=C(O)C1CCCN(CCC=C(c2ccccc2)c2ccccc2)C1 (stereo not drawn)", "data value": "inactive"}
{"compound": "CC(=O)[C@H]1CC[C@H]2[C@@H]3CCC4=CC(=O)CC[C@]4(C)[C@H]3CC[C@]12C", "data value": "inactive"}

Input line: Look up outcome: OCc1ccc(-c2nn(Cc3ccccc3)c3ccccc23)o1
Output line: inactive

====

Experiment: High-throughput drug toxicity screening in the BPDCN cell line Gen2.2 (AID 1224824);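 note: cells exposed to compounds for 48 h before reading; 100% = DMSO and 0% = bortezomib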
Details: Gen2.2 BPDCN cells; at 45.8 µM (top of the series) unless noted
reported property: cell viability, % of control (lower = more cytotoxic) (%)
# unit: % | format: bare number

Reference set (5 entries):
{"molecule": "COC(=O)Nc1nc2ccc(Sc3ccccc3)cc2[nH]1", "data value": 61}
{"molecule": "CNCC[C@H](Oc1cccc2ccccc12)c1cccs1", "data value": 8.39}
{"molecule": "CC1=NN(c2ccccc2)C(=O)C1", "data value": 112}
{"molecule": "O=C(O)c1cc(=O)[nH]c(=O)[nH]1", "data value": 184}
{"molecule": "CC(C)C1CCC(C(=O)N[C@H](Cc2ccccc2)C(=O)O)CC1 (some centres not stated)", "data value": 139}

Continue with the next molecule.
Input line: Look up cell viability, % of control (lower = more cytotoxic): OC(Cn1cncn1)(Cn1cncn1)c1ccc(F)cc1F
Output line: 66.2
